Task for the reader: assign each of the following compounds its reported MIC.
Test system: E. cloacae P99 (AmpC)
Test: MIC of compounds alone, broth microdilution
Assay type: cell-based
Settings: Enterobacter cloacae; strain P99 (E. cloacae); read-out: MIC compounds of the invention alone
Protocol: Method 2: MIC of Compounds and Synergy with Ceftazidime Against Bacterial Isolates (Table 2 and 3) Compounds of the present invention were assessed against genotyped bacterial strains alone or in combination with the β-lactam ceftazidime (CAZ). In the assays, MICs of said compounds, or of ceftazidime at fixed concentrations of said compounds were determined by the broth microdilution method according to the Clinical Laboratory Standards Institute (CLSI-M7-A7). […]

COc1ncc(C2=CC3CN(C2)C(=O)N3OS(=O)(=O)[O-])s1.[Na+] (stereo not shown) [Example 39]: > 32 µg/mL
Cn1cc(C2=CC3CN(C2)C(=O)N3OS(=O)(=O)[O-])ccc1=O.[Na+] (stereo not shown) [Example 28]: > 32 µg/mL
Cn1cccc(C2=CCN3CC2N(OS(=O)(=O)[O-])C3=O)c1=O.[Na+] (stereo not shown) [Example 16]: > 32 µg/mL
O=C1N2CC(c3ccccn3)=CC(C2)N1OS(=O)(=O)[O-].[Na+] (stereo not shown) [Example 42]: > 32 µg/mL
O=C1N2CC=C(c3ccccn3)C(C2)N1OS(=O)(=O)[O-].[Na+] (stereo not shown) [Example 11]: > 32 µg/mL

I would be grateful if you could provide MIC for each of the following entries.
1. O=C1N2CC(c3cn[nH]c3)=CC(C2)N1OS(=O)(=O)[O-].[Na+] (stereo not shown) [Example 43]
2. O=C1N2CC=C(c3cnccn3)C(C2)N1OS(=O)(=O)[O-].[Na+] (stereo not shown) [Example 12]
3. O=C1N2CC=C(c3cnsc3)C(C2)N1OS(=O)(=O)[O-].[Na+] (stereo not shown) [Example 29]
4. Cn1cc(C2=CCN3CC2N(OS(=O)(=O)[O-])C3=O)c(=O)n(C)c1=O.[Na+] (stereo not shown) [Example 23]
5. O=C1N2CC(c3nc4ccccc4s3)=CC(C2)N1OS(=O)(=O)[O-].[Na+] (stereo not shown) [Example 27]
6. O=C1N2CC=C(c3cccnc3)C(C2)N1OS(=O)(=O)[O-].[Na+] (stereo not shown) [Example 9]
7. Cn1cc(C2=CCN3CC2N(OS(=O)(=O)[O-])C3=O)ccc1=O.[Na+] (stereo not shown) [Example 8]
8. O=C1N2CC=C(c3cn[nH]c3)C(C2)N1OS(=O)(=O)[O-].[Na+] (stereo not shown) [Example 1]

*A*
1. > 32 µg/mL
2. > 32 µg/mL
3. > 32 µg/mL
4. > 32 µg/mL
5. > 32 µg/mL
6. > 32 µg/mL
7. > 32 µg/mL
8. > 32 µg/mL

I would be grateful if you could provide MIC for each of the following entries.
1. COc1ncc(C2=CCN3CC2N(OS(=O)(=O)[O-])C3=O)cn1.[Na+] (stereo not shown) [Example 24]
2. Cn1nccc1C1=CCN2CC1N(OS(=O)(=O)[O-])C2=O.[Na+] (stereo not shown) [Example 2]
3. O=C1N2CC(c3nc4cccnc4s3)=CC(C2)N1OS(=O)(=O)[O-].[Na+] (stereo not shown) [Example 40]

*A*
1: > 32 µg/mL; 2: > 32 µg/mL; 3: > 32 µg/mL
